# System: Huh7 cells
# ASSAY INFO: Cytotoxicity in Huh7 cells, ATPLite kit
# Assay type: cell-based, human
# CONDITION PARAMETERS: Huh7, 10% FBS
EXPERIMENTAL ENDPOINT: CC90

Enquiry: Annotate the compound C[C@H](N[P@](=O)(OC[C@H]1O[C@@H](n2ccc(=O)[nH]c2=O)[C@](C)(F)[C@@H]1O)Oc1ccccc1)C(=O)OC1CCC1 [Prodrug 1.1] with its measured CC90.
Return: > 100 µM
